assaySummary: Stability of JAK3 covalent inhibitors in human whole blood
Format: in vitro ADME
assayConditions: both sexes, whole blood, 37° C., read-out: Human blood stability t1/2
measurementName: half-life at 1 μM (h)

Some solved entries appear below for comparison.
# get_value(readout='half-life at 1 μM', item= "C=CC(=O)N1CCC(Nc2cnc3[nH]cc(C(=O)N[C@H]4CC[C@@H](F)C4)c3n2)CC1" )
4.73

# get_value(readout='half-life at 1 μM', item= "C=CC(=O)N1CCC(Nc2cnc3[nH]cc(C(=O)NCCCC(F)(F)F)c3n2)CC1" )
3.92

# get_value(readout='half-life at 1 μM', item= "C=CC(=O)N1CC[C@@H]2CCN(c3nc(N)nc4[nH]ccc34)[C@@H]2C1" )
3.25

# get_value(readout='half-life at 1 μM', item= "C=C(C(=O)N1CC[C@@H]2CCN(c3ncnc4[nH]ccc34)[C@@H]2C1)C(F)(F)F" )
0.0467

I. C=CC(=O)N1CCC[C@@H](Nc2ncnc3[nH]cc(-c4ccc(C(=O)N(C)C)cc4)c23)C1
II. C=CC(=O)N1CCC(Nc2cnc3[nH]cc(C(=O)NC(C)(C)C)c3n2)CC1
Input pair: I , II . Output: entry with lower half-life at 1 μM. // caller expects the label of the chosen entry
I

a. C=CC(=O)N1C[C@H](Nc2ncnc3[nH]ccc23)C[C@@H](N(C)C)C1
b. C=CC(=O)N1CCN(c2cnc3[nH]cc(C(=O)NC(C)C)c3n2)C[C@@H]1CC
Two entries are listed, a and b . Which one carries the higher half-life at 1 μM? // caller expects the label of the chosen entry
b
(b: 3.32 h, a: 1.23 h)

----------
assaySummary: Stability of JAK3 covalent inhibitors in human whole blood
Format: in vitro ADME
assayConditions: both sexes, whole blood, 37° C., read-out: Human blood stability t1/2
measurementName: half-life at 1 μM (h)

# get_value(readout='half-life at 1 μM', item= "C=CC(=O)N1CCC(Nc2cnc3[nH]cc(C(=O)NC4CCCCC4)c3n2)CC1" )
3.93

A. C=CC(=O)N1C[C@H](Nc2ncnc3[nH]cc(CCOC)c23)CC[C@@H]1C
B. C=CC(=O)N1CC[C@@H](Nc2cnc3[nH]cc(C(=O)NC(C)C)c3n2)[C@@H](F)C1
Two entries are listed, A and B . Which one carries the higher half-life at 1 μM? // caller expects the label of the chosen entry
A

----------
assaySummary: Stability of JAK3 covalent inhibitors in human whole blood;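 also: parent compound remaining over incubation time quantified by LC-MS/MS as peak area ratio against an internal standard, using pooled K2-EDTA blood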
Assay type: in vitro ADME
assayConditions: both sexes, whole blood, 37° C., read-out: Human blood stability t1/2
Reported half-life at 1 μM values for a set of compounds

Some solved entries appear below for comparison.
# get_value(readout='half-life at 1 μM', item= COCCc1c[nH]c2ncnc(N[C@@H]3CCCN(C(=O)/C=C/CN(C)C)C3)c12 [Example 108] )
> 6 h

# get_value(readout='half-life at 1 μM', item= C=CC(=O)N1CCC(Nc2cnc3[nH]cc(-c4cnc(OC)nc4)c3n2)CC1 [Example 210] )
> 6 h

# get_value(readout='half-life at 1 μM', item= C=CC(=O)N1CCC[C@@H](Nc2ncnc3[nH]cc(-c4ccc(OCC)nc4)c23)C1 [Example 33] )
> 6 h

// below: half-life at 1 μM requested for another compound
# get_value(readout='half-life at 1 μM', item= C=CC(=O)N1C[C@H](Nc2ncnc3[nH]ccc23)C[C@H](OC)C1 [Example 19] )
3.51 h

The reported numbers originate from patent US9617258B2.
